measurement_target: GABA-A receptor; anion channel
assay_info: In vitro for inhibition of [3H]diazepam towards Benzodiazepine receptor from rat
Mark TRUE only when IC50 stays strictly below 600 nM. Values equal to the cut-off are FALSE.

Solved entries (count: 3):
(Q) Lab log: compare recorded IC50 with 600 nM; is it strictly lower for CNC1=Nc2ccc(Cl)cc2C(c2ccccc2)=[N+]([O-])C1 [CHLORDIAZEPOXIDE] ?
(A) TRUE

(Q) Lab log: compare recorded IC50 with 600 nM; is it strictly lower for `Cc1nnc2ccc(-c3cccc(Cl)c3)nn12` ?
(A) FALSE

(Q) Lab log: compare recorded IC50 with 600 nM; is it strictly lower for `CCc1nnc2ccc(-c3cccc(C(F)(F)F)c3)nn12` ?
(A) TRUE

More entries:
(Q) Lab log: compare recorded IC50 with 600 nM; is it strictly lower for `Cc1nnc2ccc(-c3ccccc3)nn12` ?
(A) FALSE

(Q) Lab log: compare recorded IC50 with 600 nM; is it strictly lower for `Cc1nnc2ccc(-c3ccccc3F)nn12` ?
(A) FALSE

(Q) Lab log: compare recorded IC50 with 600 nM; is it strictly lower for `COc1cccc(-c2ccc3nnc(C)n3n2)c1` ?
(A) TRUE

(Q) Lab log: compare recorded IC50 with 600 nM; is it strictly lower for `FC(F)(F)c1cccc(-c2ccc3nnc(CCl)n3n2)c1` ?
(A) TRUE

Where do these numbers come from? They come from ChEMBL document CHEMBL1121835.
